B1: LINE1-full (parent)
chain: UACGUAGGUGGUUUUCCCCUGAUAGUGCUAAGGGGGCCUGGAAGUUUGGACUGGGCAGAGCUCAACACAGCGUGGCAAAGUGGCUGUGGCUAGACUGCCUCUCUGGAUUCCUCGUCACUCAGCAGGGCAUCUCUGAGAGAAAUGCC

# Variants of: B1
# measurement-description: self-cleavage, relative activity (ratio to wild type); higher = more cleavage; in vitro, sequencing; the parent is a self-cleaving ribozyme
Kindly return 1 (yes) if reported self-cleavage is no lower than 1; return 0 (no) if it is lower.

query: Form field: self-cleavage at least 1? Entry: UAAGUAGGUGGUUUUCCCCUGAUAGUGCUAAGGGGGCCUGGAAGUUUGGACUGGGCAGAGCUCAACACAGCGUGGCAAAGUGGCUGUGGCUAGACUGCCUCUCUGGAUUCCCCGUCACUCAGCAGGGCAUCUCUGAGAGAAAUGCC
result: 1 (yes)

query: One more variant: UACGUAGGCGGUUUUCCCCUGAUAGUGCUAAGGGGGCCUGGAAGUUUGUACUGGGCAGAGCUCAACACAGCGUGGCAAAGUGGCUGUGGCUAGACUGCCUCUCUGGAUUCCUCGUCACUCAGCAGGGCAUCUCUGAGAGAAAUGCC
result: 1 (yes)

query: One more variant: UACGUAGGUGGUUUUCCCCUGAUAGUGCUAAGGGGGCCUGGAAGUUUGGACUGGGCAGAGCUCAGCACAGCGUGGCAAAGUGGCUGUGGCUAAACUGCCUCUCUGGAUUCCUCGUCACUCAGCAGGGCAUCUCUGAGAGAAAUGCC
result: 0 (no)

query: One more variant: UACGUAGGUGGUUUUCCCCUGAUAGUGCUAAGGGGGCCUGGAAGUUUGGACUGGGCAGAGCUCAACACAGCGUGGCAAAGUGGCUGUGGCUAGACUCCCUCUCUGGAUUCAUCGUCACUCAGCAGGGCAUCUCUGAGAGAAAUGCC
result: 0 (no)

query: One more variant: UACGUAGGUGGUUUUCCCCUGAUAGUGCUAAGGGGGCCUGGAAGUUUGGACUGGGCAGAGCUCAACACAGCGUGACAAAGUGGCUGUGGCUAGACUGCCUCUCUGGAUUCCUCGUCACUCAGCAGGGCACCUCUGAGAGAAAUGCC
result: 0 (no)

query: One more variant: UACGUAGGUGGUUUUCCCCUGAUAGUGCUAAGGGGGCCUGGCAGUUUGGACUGGGCAGAGCUCAACACAGCGUGGCAAAGUGGCUGUGGCUAGACUGCCUCUCUGGACUCCUCGUCACUCAGCAGGGCAUCUCUGAGAGAAAUGCC
result: 0 (no)

query: One more variant: UACGUAGGUGGUUUUCCCCUGAUAGUGCUAAGGGGGCCUGGAAGUUUGGACUGGGCAGAGCUCAACACAGCGUGGCUAAGUGGCUGUGGCUAUACUGCCUCUCUGGAUUCCUCGUCACUCAGCAGGGCAUCUCUGAGAGAAAUGCC
result: 0 (no)

query: One more variant: UACGUAGGUGGUGUUCCCCUGAUAGUGCUAAGGGGGCCUGGAAGUUUGGACUGGGCAGAGCUCAACACAGCGUGGCAAAGUGGCUGUGGCUAGACUGCCUCUCUGGACUCCUCGUCACUCAGCAGGGCAUCUCUGAGAGAAAUGCC
result: 1 (yes)

query: One more variant: UACGUAGGAGGUUUUCCCCUGAUAGUGCUAAGGGGGCCUGGAAGUUUGGACUGGGCAGAGCUCAACACAGCGUGGCAAAGUGGCUGUGGCUAGACUGCCUCUCUGGAUUCCUCGUCACUCAGCAGGGCAUCUCUGUGAGAAAUGCC
result: 0 (no)

query: One more variant: UACGUAGGUGGUUUUCCCCUGAUAGUGCUAAGGGGGCCUGGAAGUUUGGACUGGGCUGAGCUCAACACAGCGUGGCAAAGUGGCUGUGGCUAGACUGCCUCUCUGGAUUCCUCGUCACUCAGCAGGGCAUCCCUGAGAGAAAUGCC
result: 0 (no)

query: One more variant: UACGUAGGUGGUUUUCCCCUGAUAGUGCUAACGGAGCCUGGAAGUUUGGACUGGGCAGAGCUCAACACAGCGUGGCAAAGUGGCUGUGGCUAGACUGCCUCUCUGGAUUCCUCGUCACUCAGCAGGGCAUCUCUGAGAGAAAUGCC
result: 1 (yes)

query: One more variant: UACGCAGGUGGUUUUCCCCUGAUAGUGCUAAGGGGGCCUGGAAGUUUGGACUGGGCAGAGCUCAACACAGCGUGGCAAAGUGGCUGUGGCUAGACUGCCUCUCUGGAUUCCUCGUCACUCAGCAGGGCACCUCUGAGAGAAAUGCC
result: 1 (yes)

query: One more variant: UACGUAGGUGGUUUUCCCCUGAUAGUGCUAAGGGGGCCUGGAAGUUUGGACUGGGCAGAACCCAACACAGCGUGGCAAAGUGGCUGUGGCUAGACUGCCUCUCUGGAUUCCUCGUCACUCAGCAGGGCAUCUCUGAGAGAAAUGCC
result: 0 (no)

query: One more variant: UACGUAGGUGGUUUUCCCCUGAUAGUGCUAAGGGGGCCUGGAAGUUUGGACUGGGCAGAGCUCAACACAGCGUGGCAAAGUGGCUGUGGCUAGACUGCCUCUCUGGAUUCCUAGUCACUCAGCAGGGCAUCUCUGAGAGAAACGCC
result: 0 (no)

query: One more variant: UACGUAGGUGGUUUUCCCCUGAUAGUGCUAAGGGGGCCUGGAAGUUUGGACUGGGCAGAGCUCAACACAGCGUGGCAAAGUGGCGGUGGCUAGGCUGCCUCUCUGGAUUCCUCGUCACUCAGCAGGGCAUCUCUGAGAGAAAUGCC
result: 0 (no)

query: One more variant: UACGUAGGUGGUUUUCCCCUGAUAGUGCUAAGGGGGCCUGGAAGUUUGGACUGGGCAGAGCUCAACACAGCGUGGCAAAGUGGCUGUGGCUAGACUGCCUCUCUGGAUUCCUCGUCACACAGCAGGGCAUCUCUGGGAGAAAUGCC
result: 1 (yes)

query: One more variant: UACGUAGGUGGUUUUCCCCUGAUAGUGCUAAGGGGGCCUGGAAGUUUGGACUGGGCAGAGCCCAACACAGCGUGGCAAAGUGGCUGUGGCUAGACUGCCUCUCUGGAUUCCUCGUCACUCAGCAGGGCAUCUCUGUGAGAAAUGCC
result: 0 (no)

query: One more variant: UACGUAGGUGGUUUUCCCCUGAUAGUGCUAAGGGGGCCUGGAAGUUUGGACUGGGCUGAGCUCAACGCAGCGUGGCAAAGUGGCUGUGGCUAGACUGCCUCUCUGGAUUCCUCGUCACUCAGCAGGGCAUCUCUGAGAGAAAUGCC
result: 0 (no)

query: One more variant: UACGUAGGUGGUUUUCCCCUGAUAGUGCUAAGGGGGCCUGGAAGUUUGGACUGGGCAGAGCUCAACACAGCGUGGCAAAGUGGCUGUGGCUAGACUGCCUCACUUGAUUCCUCGUCACUCAGCAGGGCAUCUCUGAGAGAAAUGCC
result: 1 (yes)

query: One more variant: UACGUAGGUGGUUUUCCCCUGAUAGUGCUAAGGGGGCCUGGAAGUUUGGACUGGGCAGAGCUCAACACAGCGUGGCAAAGUGGCUGUGGCUAGACUGCCUCUCUGGUUUCCUCGUCACUCAGCAGGGCAUCUCUGAGAGAAAUACC
result: 1 (yes)

query: One more variant: UACGUAGGUGGUUUUCCCCUGAUAGUGCUAAGGGGGCCUGGAAGUUUGGACUGGGCAGAGCUCAACACAGCGUGGCAAAGUGGCUGUGCCUAGACUGCCUCUCUGGAUUCCUCGUCACACAGCAGGGCAUCUCUGAGAGAAAUGCC
result: 0 (no)

query: One more variant: UACGUAGGUGGUUUUCCCCUGAUAGUGCUAAGGGGGCCUGGAAGUUUGGACUGGGCAGAGCUCAACACAGCGUGGCAACGUGGCUGUGGCUGGACUGCCUCUCUGGAUUCCUCGUCACUCAGCAGGGCAUCUCUGAGAGAAAUGCC
result: 0 (no)

query: One more variant: UACGUAGGUGGUUUUCCCCUGAUAGUGCUAAGGUGGCCUGGAAGUUUGGACUGGGCAGAGCUCAACACAGCGUGGCAAAGUGGCUGUGGCUAGACUGCCUCUCUGGAUUCCUCGUCACCCAGCAGGGCAUCUCUGAGAGAAAUGCC
result: 1 (yes)

query: One more variant: UACGUAGGUGGUUUUCCCCUGAUAGUGCUAAGGGGGCCUGGAAGUUUGGACUGGGCAGAGCUCAACACAGCGUGGCAAAGUGGCUGUGGCUAGACUACCUCUCUGGAUUCCUCGUCACUCAGCAGGGCAUCUCUGAGGGAAAUGCC
result: 0 (no)

query: One more variant: UACGUAGGUGGUUUUCCCCUGAUAGUGCUAAGGGGGCCUGGAAGUUUGGACUGGGCAGAGCUCAACACAGCGUGGCAAAGUGGCUGUGGCUAGACUGCCCCUCUGGAUUCCUCGUCACUCAGCAGGUCAUCUCUGAGAGAAAUGCC
result: 1 (yes)

query: One more variant: UACGUAGGUGGUUUUCCCCUGAUAGUGCUAAGGGGGCCUGGAAGUUUGGACCGGACAGAGCUCAACACAGCGUGGCAAAGUGGCUGUGGCUAGACUGCCUCUCUGGAUUCCUCGUCACUCAGCAGGGCAUCUCUGAGAGAAAUGCC
result: 0 (no)

query: One more variant: UACGUAGGUGGUUUUCCCCUGAUAGUGCUAAGGGGGCCUGGAAGUUUGGACUGGGCAGAGCUCAACACAGCGUGGCAAAGUGGCUGUGGCUAGACUGCCUUUCUGGAUUCCUCGUCACUCAGCAGGGCACCUCUGAGAGAAAUGCC
result: 1 (yes)

query: One more variant: UACGUAGGUGGUUUUCCCCUGAUAGUGCUAAGGGGGCCUGGAAGUUUGGACUGAGCAGAGCUCAACACAGCGUGGCAAAGUGGCUGUGGCUAGACUGCCUCUCUGGACUCCUCGUCACUCAGCAGGGCAUCUCUGAGAGAAAUGCC
result: 0 (no)

query: One more variant: UACGUAGGUGGUUUUCCCCUGAUAGUGCUAAGGGGGCCUGGAAGGUUGGACUGGGCAGAGCUCAACACAGCGUGGCAAAGUGACUGUGGCUAGACUGCCUCUCUGGAUUCCUCGUCACUCAGCAGGGCAUCUCUGAGAGAAAUGCC
result: 0 (no)

query: One more variant: UACGUCGGUGGUUUUCCCCUGGUAGUGCUAAGGGGGCCUGGAAGUUUGGACUGGGCAGAGCUCAACACAGCGUGGCAAAGUGGCUGUGGCUAGACUGCCUCUCUGGAUUCCUCGUCACUCAGCAGGGCAUCUCUGAGAGAAAUGCC
result: 0 (no)

query: One more variant: UACGUAGGUGGUUUUCCCCUGAUAGUGCUAAGGGGGCCUGGAAGUUUGGGCUGGGCGGAGCUCAACACAGCGUGGCAAAGUGGCUGUGGCUAGACUGCCUCUCUGGAUUCCUCGUCACUCAGCAGGGCAUCUCUGAGAGAAAUGCC
result: 0 (no)

query: One more variant: UACGUAGGUGGUUUUCCCCUGAUAGUGCUAAGGGGGCCUGGAAGUUUGGACUGGGCAGAGCUCAACACAGCGUGGCCAAGUGGCUGUGGCUAGACUGCCUCUCUGGAUUCCUCGUCACUCAGCAGGGCAUCUCUGAGAGGAAUGCC
result: 1 (yes)

query: One more variant: UACGUAGGUGGUUUUCCCCUGAUAGUGCUAAGGGGGCCUGGAAGUUUGGACUGGGCAGAGCUCAACACAGCGUGGCAAAGUAGCUGUGGCUAGACUGCCUCUCUGGAUUCCUCGUCACUCAGCAGGGCAUCUCUGAGAGAAAUGCC
result: 1 (yes)

query: One more variant: UACGUAGGAGGUUUUCCCCUGAUAGUGCUAAGGGGGCCUGGAAGUUUGGACUGGGCAGAGCUCAACUCAGCGUGGCAAAGUGGCUGUGGCUAGACUGCCUCUCUGGAUUCCUCGUCACUCAGCAGGGCAUCUCUGAGAGAAAUGCC
result: 0 (no)

query: One more variant: UACGUAGGUGGUUUUCCCCUGGCAGUGCUAAGGGGGCCUGGAAGUUUGGACUGGGCAGAGCUCAACACAGCGUGGCAAAGUGGCUGUGGCUAGACUGCCUCUCUGGAUUCCUCGUCACUCAGCAGGGCAUCUCUGAGAGAAAUGCC
result: 0 (no)

query: One more variant: UACGUAGGUGGUUUUCCCCUGAUAGUGCUAAGGGGGCCUGGAGGUUUGGACUGGGCAGAGCUCAACACAGCGUGGCAAAGUGGCUGUGGCUAGACUGCCUCUCUGGAUUCCUCGUCACUCAGCAGGUCAUCUCUGAGAGAAAUGCC
result: 1 (yes)

query: One more variant: UACGUAGGUGGUUUUCCCCUGAUAGUGCUAAGGGGGCCUGGAAGUUUGGACUGGGCAGAGCACAACACAGCGUGGCAGAGUGGCUGUGGCUAGACUGCCUCUCUGGAUUCCUCGUCACUCAGCAGGGCAUCUCUGAGAGAAAUGCC
result: 0 (no)

query: One more variant: UACGUAGGUGGUUUUCCCCUGAUAGUGCUAAGGGGGCCUGGAAGUUUGGACUGGGCAGAGCUCAACUCAGCGUGGCAAAGUGACUGUGGCUAGACUGCCUCUCUGGAUUCCUCGUCACUCAGCAGGGCAUCUCUGAGAGAAAUGCC
result: 0 (no)

query: One more variant: UACGUAGGUGGUUUUCCCCUGAUAGUGCUAAGGGGGCCUGGAAGUAUGGACUGGGCAGAGCUCAACACAGCGUGGCAAAGUGGCUGUGGCUAGACUGCCUCUCUGGAUUCCCCGUCACUCAGCAGGGCAUCUCUGAGAGAAAUGCC
result: 1 (yes)

query: One more variant: UACGUAGGUGGUUUUCCCCUGAUAGUGCUAAGGGGGCCUGGAAGUUUGGACUGGGCAGAGCCCAACACAGCGUGGCAAAGUGGCUGUGGCUAGACUGCCUCUCUGGAUUCCUCGUCACUCAGCAGGGCAUCACUGAGAGAAAUGCC
result: 0 (no)
